System: 786-0
Experiment: NCI tumour cell line growth inhibition, 48 h
Activity calls are given as the source filed them. Rule as the data show it: active = GI50 up to about 1.1 µM and inactive = higher.
Outcome codes: active, inactive

>>> print(df.to_string())
                                    compound  label_class
 0  c1ccc(CN2CCC(Nc3ccccc3)(c3nnnn3Cc3ccccc3)CC2)cc1     inactive
 1            O=C1Nc2ccccc2/C1=N/N=C1NCCCCN1     inactive
 2  c1ccc2c(c1)CN1CCCC1CN2 (stereo not given)     inactive
 3  C=C(C)[C@H]1C[C@@H]2O[C@@](O)(/C(C)=C\C(=O)/C=C(/C)C[C@H]3OC(=O)[C@@]24O[C@H]34)[C@@H]1O     inactive
 4        CC(C)SC(=S)Sc1c(Cl)c(Cl)nc(Cl)c1Cl     inactive
 5      O=C(O)c1c[nH]c2c(Sc3ccccc3)nccc2c1=O     inactive
 6  NC(=O)CCC(Nc1c2ccccc2[n+]([O-])c2ccccc12)C(=O)O (stereo not given)     inactive
 7          O=C(/N=N/c1ccccc1Cl)NNc1ccccc1Cl     inactive
 8  C=CC1(C)CCC2C(=CCC3C2(C)CC(O)C(O)C3(C)COC2OC(CO)C(O)C(O)C2O)C1 (stereo not given)     inactive
 9  C=C1C(O)C2(O)OCC34C(CC5C(C)=CC(=O)C(O)C5(C)C23)OC(=O)C(OC(=O)C/C=C(\C)CCCCC)C14 (stereo not given)       active
10    CCOP(=O)(/C=C/n1cc(C)c(=O)[nH]c1=O)OCC     inactive
11              Cc1ccc2oc(=O)cc(CC(=O)O)c2c1     inactive
12  C=C1C(=O)[C@@]23CC[C@@H]4[C@@]5(C)CCC[C@@]4(OC5=O)C2(C)CC[C@]1(OC)C3 (stereo not given in full)       active
13  NC(Cc1ccc(S(=O)(=O)O)cc1)C(=O)NC(Cc1ccc(S(=O)(=O)O)cc1)C(=O)NC(Cc1ccc(S(=O)(=O)O)cc1)C(=O)O (stereo not given)     inactive
14  NC(=S)N1N=C2c3ccccc3CCC[C@H]2[C@@H]1c1ccccc1       active
15  O=C1CC(NCCCNC2CC(=O)c3c(Br)sc(Br)c32)c2c(Br)sc(Br)c21 (stereo not given)       active
16  O=C(CC(=O)N1N=C(N(c2ccccc2)c2ccccc2)CC1c1ccccc1)Nc1ccc(Cl)cc1 (stereo not given)     inactive
17  O=C1CCCC2COc3ccc(O)c1c32 (stereo not given)     inactive
18  CCOC(=O)CSc1nnc(CSc2nc(-c3ccccc3)c(-c3ccccc3)[nH]2)n1-c1ccccc1     inactive
19  CN(CCNC(=O)c1c[nH]c2c1ccc1ccccc12)CCNC(=O)c1c[nH]c2c1ccc1ccccc12     inactive
